Hello, the source for this data is PubChem BioAssay, in case you need it.

Test Details: inhibitors of hydroxyurea-induced Chk1 phosphorylation, primary screen, imaging, HeLa, phospho-Chk1 nuclear intensity (AID 1187); note: test concentration not given here
Protocol Conditions: hydroxyurea-induced phospho-Chk1 immunofluorescence imaging, higher = more signal
Would you kindly list z-score for each of these molecules?
One number for each entry.

Worked examples follow.
- Molecule: "CN(C)C(=O)[C@@]1(Cc2ccccc2N=[N+]=[N-])COC(c2ccc(OCCCO)cc2)=N1"
  z-score: -0.362
- Molecule: "COC(=O)[C@]1(CCS(=O)(=O)c2ccccc2)N=C(c2ccc(OCCCO)cc2)O[C@@H]1c1ccccc1CN=[N+]=[N-]"
  z-score: -0.574

For every item in the list below, what is its measured z-score?
1. COC(=O)C1(Cc2ccccc2)C=C2C(=C(C(C)C)C(=O)C2C)CN1 (stereo not given)
2. C=CCN1C(=O)[C@@]2(O[C@@H](CCO)[C@H]([Si](C)(C)c3ccc(OC)cc3)[C@H]2C)c2cc(N3C(=O)c4ccccc4Oc4ccccc43)ccc21

Marked response:
0.602
-0.004

For every item in the list below, what is its measured z-score?
1. C[N+](C)(C)CCCC[C@@H]1NC(=O)[C@@H]2C[C@H](C(=O)O)[C@H](c3ccc(O)cc3)N2C1=O
2. C=C(C(=O)CC[C@H](OC(C)=O)c1cccc(OCCO)c1)C(C)C
3. COC(=O)[C@@]1(Cc2ccc(OC)cc2)[C@H]2c3cc(C(=O)N(C)C)n(Cc4ccccc4)c3C[C@H]2CN1C(=O)c1ccccc1

Marked response:
0.274
0.41
-0.687

For every item in the list below, what is its measured z-score?
1. Cc1ccc(S[C@]2(C(=O)NC(C)C)CC(=O)N(Cc3ccccc3C(F)(F)F)[C@@H]2c2ccc(CO)cc2I)cc1
2. CO[C@H]1O[C@H](CO)[C@@H](OC(=O)Nc2ccc(C(F)(F)F)cc2)[C@H](OC(=O)Nc2ccc3c(c2)OCO3)[C@H]1OC(=O)Nc1ccc2c(c1)OCO2
3. O=C1c2ccccc2[C@](Cc2ccccc2I)(C(=O)NCCN2CCOCC2)[C@H](c2ccc(CO)cc2)N1Cc1ccccc1
4. CC(C)(C)N1CC=CC23O[C@@H]4C=CCOC(=O)[C@@H]4[C@H]2C(=O)N(CCCO)[C@@H]3C1=O (stereo not given in full)
5. CCC[C@@H]1C[C@@]1(CCC)[C@@H](NP(=O)(c1ccccc1)c1ccccc1)c1ccc(Cl)cc1
6. C=C1C2CC3C(=C4C(CO[C@@H]4[C@H]4CCCN4S(=O)(=O)c4ccccc4[N+](=O)[O-])C4C(=O)N(C)C(=O)C34)CC2C(=O)N1C (stereo not given in full)
7. C=CCN1C(=O)[C@@]2(O[C@@H](CCn3cc([C@H](O)c4ccccc4)nn3)[C@H]([Si](C)(C)c3ccc(OC)cc3)[C@H]2C)c2ccccc21

Marked response:
0.293
-0.559
-0.321
-0.327
0.551
0.645
-1.51

Exam item: Returns the measured z-score for the input molecule. Input: "CCOC(=O)C[C@H]1[C@H](OC(=O)c2ccc(-c3ccccc3)cc2)[C@@H](NC(=O)c2ccc3ccccc3c2)c2cc(OCCCO)ccc2N1C(=O)c1ccc2ccccc2n1"
Marked response: -0.561

* * *

Experimental System: Follistatin (Homo sapiens) (UniProt P19883)
Sequence (P19883 whole entry, looked up): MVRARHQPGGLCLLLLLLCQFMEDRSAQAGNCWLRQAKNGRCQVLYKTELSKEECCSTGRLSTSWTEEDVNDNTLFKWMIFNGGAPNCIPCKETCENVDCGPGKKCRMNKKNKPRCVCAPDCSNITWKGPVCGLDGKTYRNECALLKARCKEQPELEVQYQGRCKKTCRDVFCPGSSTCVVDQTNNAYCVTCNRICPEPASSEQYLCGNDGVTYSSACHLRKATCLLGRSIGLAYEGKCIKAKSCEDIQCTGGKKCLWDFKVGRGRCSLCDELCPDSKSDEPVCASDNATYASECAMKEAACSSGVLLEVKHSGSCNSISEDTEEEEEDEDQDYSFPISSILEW
Test Details: follistatin binders on small-molecule microarrays, primary screen, biochemical, small-molecule microarray, 635/667 nm fluorescence (AID 1132)
Protocol Conditions: FST binding, 635 nm fluorescence, higher = more signal
Reported Metric: composite z-score
One number for each entry.

Worked examples follow.
- Compound: "COC(=O)C(CC#Cc1ccc2c(c1)[C@]1(C(=O)N2)[C@H](C(=O)O)[C@H]2C(=O)O[C@H](c3ccccc3)[C@H](c3ccccc3)N2[C@@H]1c1ccccc1OCCO)C(=O)OC"
  Experimental System: "Follistatin (Homo sapiens) (UniProt P19883)"
  composite z-score: 1.18
- Compound: "C[C@]12C(=O)N(CCCCCCO)[C@@H]3C(=O)N(c4ccc(Cl)cc4)CC=CC31O[C@@H]1/C=C\\CCCOC(=O)C12 (some centres undefined)"
  Experimental System: "Follistatin (Homo sapiens) (UniProt P19883)"
  composite z-score: -0.448
- Compound: "CC(C)(C)OC(=O)CC[C@]1(C(=O)N2CCOCC2)N=C(c2ccc(OCCCO)cc2)O[C@H]1c1ccccc1"
  Experimental System: "Follistatin (Homo sapiens) (UniProt P19883)"
  composite z-score: 0.825

Exam item: Returns the measured composite z-score for the input compound. Input: "CC(C)C(=C=CC[C@@H](O)c1ccccc1OCCO)C[C@@H](O)COCc1ccccc1"
Marked response: 1.28
